Assay: IC50 DNA/IC50 RNA ratio of the compound
Type: functional
# Ratio annotations

>  <Smiles Entry>
Cc1c2oc3c(C)ccc(C(=O)N[C@@H]4C(=O)N[C@H](C(C)C)C(=O)N5CCC[C@@H]5C(=O)NCC(=O)N[C@@H](C(C)C)C(=O)O[C@@H]4C)c3nc-2c(C(=O)N[C@H]2C(=O)N[C@@H](C(C)C)C(=O)N3CCC[C@H]3C(=O)NCC(=O)N[C@H](C(C)C)C(=O)O[C@H]2C)c(N)c1=O

>  <Ratio>
22.4

$$$$
>  <Smiles Entry>
Cc1c2oc3c(C)c4oc(-c5ccccc5)nc4c(C(=O)N[C@H]4C(=O)N[C@@H](C(C)C)C(=O)N5CCC[C@H]5C(=O)NCC(=O)N(C)[C@H](C(C)C)C(=O)O[C@H]4C)c3nc-2c(C(=O)N[C@@H]2C(=O)N[C@H](C(C)C)C(=O)N3CCC[C@@H]3C(=O)NCC(=O)N[C@@H](C(C)C)C(=O)O[C@@H]2C)cc1=O

>  <Ratio>
1.78

$$$$

Next compound, please.
Problem: Recorded Ratio for Cc1nc2c(C(=O)N[C@H]3C(=O)N[C@@H](C(C)C)C(=O)N4CCC[C@H]4C(=O)N(C)CC(=O)N(C)[C@H](C(C)C)C(=O)O[C@H]3C)c3nc4c(C(=O)N[C@@H]5C(=O)N[C@H](C(C)C)C(=O)N6CCC[C@@H]6C(=O)N(C)CC(=O)N(C)[C@@H](C(C)C)C(=O)O[C@@H]5C)c(N)c(=O)c(C)c-4oc3c(C)c2o1 , please?
Solution: 11.2

====

Assay: Therapeutic index ([…]) value of the compound
Settings: read-out: TI
Measured Attribute: selectivity ratio

Problem: Recorded selectivity ratio for Cc1c2oc3c(C)ccc(C(=O)N[C@@H]4C(=O)N[C@H](C(C)C)C(=O)N5CCC[C@H]5C(=O)NCC(=O)N[C@@H](C(C)C)C(=O)O[C@@H]4C)c3nc-2c(C(=O)N[C@@H]2C(=O)N[C@H](C(C)C)C(=O)N3CCC[C@H]3C(=O)NCC(=O)N[C@@H](C(C)C)C(=O)O[C@@H]2C)c(N)c1=O , please?
Solution: 4

====

# MTD at 504 h annotations
Test: Minimum tolerated dose is the lethal dose for 10% normal mice for deaths during 21 days
Type: ADME, organism-based
Details: mouse, in vivo
Dear colleague, please return just the value in mg/kg, with no unit written.

>  <Smiles Entry>
Cc1c2oc3c(C)ccc(C(=O)N[C@@H]4C(=O)N[C@H](C(C)C)C(=O)N5CCC[C@H]5C(=O)NCC(=O)N[C@@H](C(C)C)C(=O)O[C@@H]4C)c3nc-2c(C(=O)N[C@@H]2C(=O)N[C@H](C(C)C)C(=O)N3CCC[C@H]3C(=O)NCC(=O)N[C@@H](C(C)C)C(=O)O[C@@H]2C)c(N)c1=O

>  <Readout Value>
0.25

$$$$

Problem: Recorded MTD at 504 h for Cc1c2oc3c(C)c4oc(-c5ccccc5)nc4c(C(=O)N[C@@H]4C(=O)N[C@H](C(C)C)C(=O)N5CCC[C@H]5C(=O)N(C)CC(=O)N(C)[C@@H](C(C)C)C(=O)O[C@@H]4C)c3nc-2c(C(=O)N[C@@H]2C(=O)N[C@H](C(C)C)C(=O)N3CCC[C@H]3C(=O)N(C)CC(=O)N(C)[C@@H](C(C)C)C(=O)O[C@@H]2C)c(N)c1=O , please?
Solution: 1.8

====

# selectivity ratio annotations
Experiment: Therapeutic index (MTD/MED) value of the compound
Conditions: read-out: TI
No unit in the answer, only the number.

>  <Smiles Entry>
Cc1c2oc3c(C)c4oc(-c5ccccc5)nc4c(C(=O)N[C@@H]4C(=O)N[C@H](C(C)C)C(=O)N5CCC[C@H]5C(=O)N(C)CC(=O)N(C)[C@@H](C(C)C)C(=O)O[C@@H]4C)c3nc-2c(C(=O)N[C@@H]2C(=O)N[C@H](C(C)C)C(=O)N3CCC[C@H]3C(=O)N(C)CC(=O)N(C)[C@@H](C(C)C)C(=O)O[C@@H]2C)c(N)c1=O

>  <Measured Attribute>
selectivity ratio

>  <Readout Value>
60

$$$$
>  <Smiles Entry>
Cc1c2oc3c(C)c(O)c(N)c(C(=O)N[C@@H]4C(=O)N[C@H](C(C)C)C(=O)N5CCC[C@H]5C(=O)N(C)CC(=O)N(C)[C@@H](C(C)C)C(=O)O[C@@H]4C)c3nc-2c(C(=O)N[C@@H]2C(=O)N[C@H](C(C)C)C(=O)N3CCC[C@H]3C(=O)N(C)CC(=O)N(C)[C@@H](C(C)C)C(=O)O[C@@H]2C)c(N)c1=O

>  <Measured Attribute>
selectivity ratio

>  <Readout Value>
96

$$$$
>  <Smiles Entry>
Cc1c2oc3c(C)c(O)c(N)c(C(=O)N[C@@H]4C(=O)N[C@H](C(C)C)C(=O)N5CCC[C@H]5C(=O)N(C)CC(=O)N(C)[C@@H](C(C)C)C(=O)O[C@@H]4C)c3nc-2c(C(=O)N[C@@H]2C(=O)N[C@H](C(C)C)C(=O)N3CCC[C@H]3C(=O)N(C)CC(=O)N(C)[C@@H](C(C)C)C(=O)O[C@@H]2C)cc1=O

>  <Measured Attribute>
selectivity ratio

>  <Readout Value>
13

$$$$

Next compound, please.
Problem: Recorded selectivity ratio for Cc1c2oc3c(C)c4oc(-c5ccccc5)nc4c(C(=O)N[C@@H]4C(=O)N[C@H](C(C)C)C(=O)N5CCC[C@H]5C(=O)N(C)CC(=O)N(C)[C@@H](C(C)C)C(=O)O[C@@H]4C)c3nc-2c(C(=O)N[C@@H]2C(=O)N[C@H](C(C)C)C(=O)N3CCC[C@H]3C(=O)N(C)CC(=O)N(C)[C@@H](C(C)C)C(=O)O[C@@H]2C)cc1=O , please?
Solution: 10

====

Test system: P388
Assay: Inhibition of DNA synthesis was measured as the concentration required to cause 50% reduction (in 1h) in methyl [3H]thymidine incorporation into acid precipitable material using P388 cells
Type: functional, cell-based
Details: Mus musculus
# IC50 annotations
Dear colleague, please return just the value in µM, with no unit written.

The following molecules have reported results that may help.
>  <Smiles Entry>
Cc1c2oc3c(C)c(O)c(N)c(C(=O)N[C@@H]4C(=O)N[C@H](C(C)C)C(=O)N5CCC[C@H]5C(=O)N(C)CC(=O)N(C)[C@@H](C(C)C)C(=O)O[C@@H]4C)c3nc-2c(C(=O)N[C@@H]2C(=O)N[C@H](C(C)C)C(=O)N3CCC[C@H]3C(=O)N(C)CC(=O)N(C)[C@@H](C(C)C)C(=O)O[C@@H]2C)cc1=O

>  <IC50 / µM>
5.1

$$$$
>  <Smiles Entry>
Cc1c2oc3c(C)c4oc(-c5ccccc5)nc4c(C(=O)N[C@@H]4C(=O)N[C@H](C(C)C)C(=O)N5CCC[C@H]5C(=O)N(C)CC(=O)N(C)[C@@H](C(C)C)C(=O)O[C@@H]4C)c3nc-2c(C(=O)N[C@@H]2C(=O)N[C@H](C(C)C)C(=O)N3CCC[C@H]3C(=O)N(C)CC(=O)N(C)[C@@H](C(C)C)C(=O)O[C@@H]2C)cc1=O

>  <IC50 / µM>
5.7

$$$$
>  <Smiles Entry>
Cc1c2oc3c(C)c(O)c(N)c(C(=O)N[C@@H]4C(=O)N[C@H](C(C)C)C(=O)N5CCC[C@H]5C(=O)N(C)CC(=O)N(C)[C@@H](C(C)C)C(=O)O[C@@H]4C)c3nc-2c(C(=O)N[C@@H]2C(=O)N[C@H](C(C)C)C(=O)N3CCC[C@H]3C(=O)N(C)CC(=O)N(C)[C@@H](C(C)C)C(=O)O[C@@H]2C)c(N)c1=O

>  <IC50 / µM>
1.11

$$$$

Next molecule, please.
Problem: Recorded IC50 for Cc1c2oc3c(C)c4oc(-c5ccccc5)nc4c(C(=O)N[C@@H]4C(=O)N[C@H](C(C)C)C(=O)N5CCC[C@H]5C(=O)N(C)CC(=O)N(C)[C@@H](C(C)C)C(=O)O[C@@H]4C)c3nc-2c(C(=O)N[C@@H]2C(=O)N[C@H](C(C)C)C(=O)N3CCC[C@H]3C(=O)N(C)CC(=O)N(C)[C@@H](C(C)C)C(=O)O[C@@H]2C)c(N)c1=O , please?
Solution: 0.8
